- Tested on: 233499-124-R-J3-PDC complex spheroid viability
- ASSAY: Anticancer human tumor 233499-124-R-J3-PDC patient-derived colon adenocarcinoma cell line growth inhibition [CLK]; active = viability on the fitted dose curve at most 10% of control; inactive = the rest
- CONDITIONS: second compound 3.16 µM; first compound 1 µM
Could you please pick one outcome from this set? true (1) = active, false (0) = inactive

Would you please look over these solved cases?
CC1COCCN1c1cc(C2(S(C)(=N)=O)CC2)nc(-c2ccnc3[nH]ccc23)n1 (centres undefined) + CNC(=O)c1ccc(Nc2nc(OC3CCCC3)c3c(-c4ccc5nc(C)oc5c4)c[nH]c3n2)c(OC)c1 :: false (0)
CC1(C)CCC(CN2CCN(c3ccc(C(=O)NS(=O)(=O)c4ccc(NCC5CCOCC5)c([N+](=O)[O-])c4)c(Oc4cnc5[nH]ccc5c4)c3)CC2)=C(c2ccc(Cl)cc2)C1 + CNC(=O)c1ccc(Nc2nc(OC3CCCC3)c3c(-c4ccc5nc(C)oc5c4)c[nH]c3n2)c(OC)c1 :: false (0)
CCCS(=O)(=O)Nc1ccc(F)c(C(=O)c2c[nH]c3ncc(-c4ccc(Cl)cc4)cc23)c1F + CN1CCN(c2cc(C(=O)Nc3cc4cc(-c5cnn(C)c5)ccc4cn3)ccn2)CC1 :: true (1)

Shift focus to the following entry.
Tell me the assay call for CC(=O)O[C@H]1C(=O)[C@@]2(C)[C@H]([C@H](OC(=O)c3ccccc3)[C@]3(O)C[C@H](OC(=O)[C@H](O)[C@@H](NC(=O)c4ccccc4)c4ccccc4)C(C)=C1C3(C)C)[C@]1(OC(C)=O)CO[C@@H]1C[C@@H]2O + CNC(=O)c1ccc(Nc2nc(OC3CCCC3)c3c(-c4ccc5nc(C)oc5c4)c[nH]c3n2)c(OC)c1 please.
false (0)

----------
- Tested on: 233499-124-R-J3-PDC complex spheroid viability
- ASSAY: Anticancer human tumor 233499-124-R-J3-PDC cell line growth inhibition [CLK];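 note: spheroids exposed to the drug combinations for seven days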;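 for viability, T/C: percent viability relative to DMSO vehicle control wells taken as 100%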
- CONDITIONS: second compound 0.0316 µM; first compound 3.16 µM; stronger effect = lower value
# viability, T/C values compiled below
Answer format: numeric, % implied, no suffix.

CCCS(=O)(=O)Nc1ccc(F)c(C(=O)c2c[nH]c3ncc(-c4ccc(Cl)cc4)cc23)c1F + CNC(=O)c1ccc(Nc2nc(OC3CCCC3)c3c(-c4ccc5nc(C)oc5c4)c[nH]c3n2)c(OC)c1 :: 97.9
O=C(c1cc(Cc2n[nH]c(=O)c3ccccc23)ccc1F)N1CCN(C(=O)C2CC2)CC1 + CN1CCN(c2cc(C(=O)Nc3cc4cc(-c5cnn(C)c5)ccc4cn3)ccn2)CC1 :: 99.4

viability, T/C lookup needed for CC1COCCN1c1cc(C2(S(C)(=N)=O)CC2)nc(-c2ccnc3[nH]ccc23)n1 (stereo not drawn) + CN1CCN(c2cc(C(=O)Nc3cc4cc(-c5cnn(C)c5)ccc4cn3)ccn2)CC1 , thanks.
90.3

----------
Reported IC50 by item:
- Test system: 233499-124-R-J3-PDC complex spheroid viability
- ASSAY: Anticancer human tumor 233499-124-R-J3-PDC cell line growth inhibition [CLK];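 note: spheroids exposed to the drug combinations for seven days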
- CONDITIONS: curve of first compound; second compound 0.1 µM
API: value field is a number in µM; no unit string.

Sample answers from the record:
CCc1c2c(nc3ccc(O)cc13)-c1cc3c(c(=O)n1C2)COC(=O)[C@]3(O)CC + CNC(=O)c1ccc(Nc2nc(OC3CCCC3)c3c(-c4ccc5nc(C)oc5c4)c[nH]c3n2)c(OC)c1 :: 0.0345
CC1(C)CCC(CN2CCN(c3ccc(C(=O)NS(=O)(=O)c4ccc(NCC5CCOCC5)c([N+](=O)[O-])c4)c(Oc4cnc5[nH]ccc5c4)c3)CC2)=C(c2ccc(Cl)cc2)C1 + CN1CCN(c2cc(C(=O)Nc3cc4cc(-c5cnn(C)c5)ccc4cn3)ccn2)CC1 :: 6.37

Now examine the next entry.
Fill in: IC50 of Nc1ccccc1NC(=O)c1ccc(CNC(=O)OCc2cccnc2)cc1 + CN1CCN(c2cc(C(=O)Nc3cc4cc(-c5cnn(C)c5)ccc4cn3)ccn2)CC1 is ___
1.11

----------
- System: 233499-124-R-J3-PDC complex spheroid viability
- ASSAY: Anticancer human tumor 233499-124-R-J3-PDC cell line growth inhibition [CLK]; active means viability on the fitted dose curve at most 10% of control; inactive means the rest;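 note: spheroids exposed to the drug combinations for seven days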
- CONDITIONS: second compound 1 µM; first compound 10 µM
Could you please pick one outcome from this set? y for active, n for inactive

Solved cases (5 shown):
Nc1ccccc1NC(=O)c1ccc(CNC(=O)OCc2cccnc2)cc1 + CNC(=O)c1ccc(Nc2nc(OC3CCCC3)c3c(-c4ccc5nc(C)oc5c4)c[nH]c3n2)c(OC)c1 :: y
COc1ccc([C@@H](O)c2cc(-c3ncnc4cc(N5CCOCC5)ccc34)c(F)cc2Cl)nn1 + CNC(=O)c1ccc(Nc2nc(OC3CCCC3)c3c(-c4ccc5nc(C)oc5c4)c[nH]c3n2)c(OC)c1 :: n
C=C(F)C(=O)N1CCN(c2nc(OCC3CCCN3C)nc3c2CCN(c2cccc4cccc(Cl)c24)C3)CC1CC#N (configuration not stated) + CN1CCN(c2cc(C(=O)Nc3cc4cc(-c5cnn(C)c5)ccc4cn3)ccn2)CC1 :: y
O=c1[nH]cc(F)c(=O)[nH]1 + CN1CCN(c2cc(C(=O)Nc3cc4cc(-c5cnn(C)c5)ccc4cn3)ccn2)CC1 :: y
C=CC(=O)N1CCN(c2nc(=O)n(-c3c(C)ccnc3C(C)C)c3nc(-c4c(O)cccc4F)c(F)cc23)C(C)C1 (configuration not stated) + CN1CCN(c2cc(C(=O)Nc3cc4cc(-c5cnn(C)c5)ccc4cn3)ccn2)CC1 :: y

Call for entry Nc1ccn(C2OC(CO)C(O)C2(F)F)c(=O)n1 (configuration not stated) + CNC(=O)c1ccc(Nc2nc(OC3CCCC3)c3c(-c4ccc5nc(C)oc5c4)c[nH]c3n2)c(OC)c1 :
n

Please answer likewise for C#Cc1c(F)ccc2cc(O)cc(-c3ncc4c(N5CC6CCC(C5)N6)nc(OCC56CCCN5CC(F)C6)nc4c3F)c12 (configuration not stated) + CNC(=O)c1ccc(Nc2nc(OC3CCCC3)c3c(-c4ccc5nc(C)oc5c4)c[nH]c3n2)c(OC)c1
n

----------
- Tested on: 233499-124-R-J3-PDC complex spheroid viability
- ASSAY: Anticancer human tumor 233499-124-R-J3-PDC cell line growth inhibition [CLK];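 note: spheroids exposed to the drug combinations for seven days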;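 for viability, T/C: percent viability relative to DMSO vehicle control wells taken as 100%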
- CONDITIONS: second compound 0.316 µM; first compound 10 µM; stronger effect = lower value
Values of viability, T/C strictly less than 60% map to MET, and values of at least 60% map to NOT MET.

C#Cc1c(F)ccc2cc(O)cc(-c3ncc4c(N5CC6CCC(C5)N6)nc(OCC56CCCN5CC(F)C6)nc4c3F)c12 (stereo not given) + CNC(=O)c1ccc(Nc2nc(OC3CCCC3)c3c(-c4ccc5nc(C)oc5c4)c[nH]c3n2)c(OC)c1 :: MET
Nc1ccn(C2OC(CO)C(O)C2(F)F)c(=O)n1 (stereo not given) + CNC(=O)c1ccc(Nc2nc(OC3CCCC3)c3c(-c4ccc5nc(C)oc5c4)c[nH]c3n2)c(OC)c1 :: MET

Here's an entry: O=C(c1cc(Cc2n[nH]c(=O)c3ccccc23)ccc1F)N1CCN(C(=O)C2CC2)CC1 + CN1CCN(c2cc(C(=O)Nc3cc4cc(-c5cnn(C)c5)ccc4cn3)ccn2)CC1 . Is its viability, T/C below 60%?
NOT MET

Input Nc1ccccc1NC(=O)c1ccc(CNC(=O)OCc2cccnc2)cc1 + CN1CCN(c2cc(C(=O)Nc3cc4cc(-c5cnn(C)c5)ccc4cn3)ccn2)CC1
MET

Input CC(Nc1ccc2c(c1)OCCn1cc(N3C(=O)OCC3C(F)F)nc1-2)C(N)=O (stereo not given) + CNC(=O)c1ccc(Nc2nc(OC3CCCC3)c3c(-c4ccc5nc(C)oc5c4)c[nH]c3n2)c(OC)c1
MET

----------
- System: 233499-124-R-J3-PDC complex spheroid viability
- ASSAY: Anticancer human tumor 233499-124-R-J3-PDC cell line growth inhibition [CLK];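 note: spheroids exposed to the drug combinations for seven days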;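 for viability, T/C: percent viability relative to DMSO vehicle control wells taken as 100%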
- CONDITIONS: second compound 1 µM; first compound 0.1 µM; stronger effect = lower value
I'd appreciate it if you marked entries Criterion met when viability, T/C is lower than 70% and Criterion not met when it is not.

Consider the worked cases shown below.
C#Cc1c(F)ccc2cc(O)cc(-c3ncc4c(N5CC6CCC(C5)N6)nc(OCC56CCCN5CC(F)C6)nc4c3F)c12 (stereo not given) + CNC(=O)c1ccc(Nc2nc(OC3CCCC3)c3c(-c4ccc5nc(C)oc5c4)c[nH]c3n2)c(OC)c1 :: Criterion not met
O=C(c1cc(Cc2n[nH]c(=O)c3ccccc23)ccc1F)N1CCN(C(=O)C2CC2)CC1 + CNC(=O)c1ccc(Nc2nc(OC3CCCC3)c3c(-c4ccc5nc(C)oc5c4)c[nH]c3n2)c(OC)c1 :: Criterion not met
COC1C=CCC(C)C(C)S(=O)(=O)NC(=O)c2ccc3c(c2)N(CC2CCC21)CC1(CCCc2cc(Cl)ccc21)CO3 (stereo not given) + CN1CCN(c2cc(C(=O)Nc3cc4cc(-c5cnn(C)c5)ccc4cn3)ccn2)CC1 :: Criterion met
CC1(C)CCC(CN2CCN(c3ccc(C(=O)NS(=O)(=O)c4ccc(NCC5CCOCC5)c([N+](=O)[O-])c4)c(Oc4cnc5[nH]ccc5c4)c3)CC2)=C(c2ccc(Cl)cc2)C1 + CNC(=O)c1ccc(Nc2nc(OC3CCCC3)c3c(-c4ccc5nc(C)oc5c4)c[nH]c3n2)c(OC)c1 :: Criterion not met
O=C(c1cc(Cc2n[nH]c(=O)c3ccccc23)ccc1F)N1CCN(C(=O)C2CC2)CC1 + CN1CCN(c2cc(C(=O)Nc3cc4cc(-c5cnn(C)c5)ccc4cn3)ccn2)CC1 :: Criterion met

In the record for Cn1ncnc1[C@H]1c2n[nH]c(=O)c3cc(F)cc(c23)N[C@@H]1c1ccc(F)cc1 + CN1CCN(c2cc(C(=O)Nc3cc4cc(-c5cnn(C)c5)ccc4cn3)ccn2)CC1 , is viability, T/C less than 70%?
Criterion met

Same thing, different compound: CCCS(=O)(=O)Nc1ccc(F)c(C(=O)c2c[nH]c3ncc(-c4ccc(Cl)cc4)cc23)c1F + CNC(=O)c1ccc(Nc2nc(OC3CCCC3)c3c(-c4ccc5nc(C)oc5c4)c[nH]c3n2)c(OC)c1
Criterion not met

Lookup COc1cccc2c1C(=O)c1c(O)c3c(c(O)c1C2=O)CC(O)(C(=O)CO)CC3OC1CC(N)C(O)C(C)O1 (stereo not given) + CNC(=O)c1ccc(Nc2nc(OC3CCCC3)c3c(-c4ccc5nc(C)oc5c4)c[nH]c3n2)c(OC)c1
Criterion not met

Now this one: Nc1ccccc1NC(=O)c1ccc(CNC(=O)OCc2cccnc2)cc1 + CN1CCN(c2cc(C(=O)Nc3cc4cc(-c5cnn(C)c5)ccc4cn3)ccn2)CC1
Criterion met

Source of measurements: PubChem BioAssay AID2060613
